Readings of IC50 for the listed compounds
- System: OVCAR-8
- Test summary: Cytotoxicity against human OVCAR8 cells after 72 hrs by MTT assay
- Format: functional, cell-based
- Recorded conditions: OVCAR-8, 72 h

- CC1(C)OC2=C(C(=O)C(=O)c3ccccc32)C1Nc1ccc(C(=O)/C=C/c2ccccc2)cc1 (stereo not given): 1.53 µM
- CC1(C)CC2=C(O1)c1ccccc1/C(=N/Nc1ccccc1)C2=O: > 15.7 µM
- O=C1C2=C(C(=O)c3ccccc31)[C@H](c1cccc(Br)c1)[C@@H]([N+](=O)[O-])CO2: > 12.1 µM

Q: Entry CC1(C)OC2=C(C(=O)C(=O)c3ccccc32)C1Nc1ccc(C(=O)/C=C/c2ccc(-c3ccccc3)cc2)cc1 (stereo not given) has what IC50?
Result: > 9.5 µM

Q: Entry CC1(C)CCC2=C(O1)/C(=N\Nc1ccccc1)c1ccccc1C2=O has what IC50?
Result: > 15.1 µM

Q: Entry COc1ccc([C@H]2C3=C(OC[C@@H]2[N+](=O)[O-])C(=O)c2ccccc2C3=O)cc1OC has what IC50?
Result: > 12.7 µM

Q: Entry Cc1ccc([C@H]2C3=C(OC[C@@H]2[N+](=O)[O-])C(=O)c2ccccc2C3=O)cc1 has what IC50?
Result: > 14.3 µM

Q: Entry Nc1ccc(C(=O)/C=C/c2ccccc2)cc1 has what IC50?
Result: > 22.4 µM
